Target: hMAO-A (Homo sapiens)
Construct: purchased Sigma-Aldrich; host or cells: insect cells (BTI-TN-5B14) infected with recombinant baculovirus
Sequence (P21397 1-527): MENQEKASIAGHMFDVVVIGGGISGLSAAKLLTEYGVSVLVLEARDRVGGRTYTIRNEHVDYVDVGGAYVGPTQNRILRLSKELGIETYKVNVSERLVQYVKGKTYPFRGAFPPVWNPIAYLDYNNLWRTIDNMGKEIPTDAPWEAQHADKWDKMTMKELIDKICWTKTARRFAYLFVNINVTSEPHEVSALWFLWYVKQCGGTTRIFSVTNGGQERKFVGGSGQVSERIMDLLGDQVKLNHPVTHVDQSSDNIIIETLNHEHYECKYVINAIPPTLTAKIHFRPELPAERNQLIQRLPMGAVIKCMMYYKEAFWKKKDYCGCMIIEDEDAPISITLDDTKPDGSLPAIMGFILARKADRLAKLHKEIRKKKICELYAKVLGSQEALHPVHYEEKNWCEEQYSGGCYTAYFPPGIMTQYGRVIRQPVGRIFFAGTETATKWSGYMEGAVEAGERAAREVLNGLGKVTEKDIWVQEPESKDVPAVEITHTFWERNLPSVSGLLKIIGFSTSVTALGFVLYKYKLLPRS
Test: Recombinant human MAO-A inhibition screening (Amplex Red, p-tyramine)
Type: biochemical
Settings: IC50 (MAO-A)/IC50 (MAO-B)
Here, each record is paired with measured Selectivity index data.
Give your answer as a number; write no unit.

As a guide, the following entries are already answered.
C=CCc1ccc(OC(=O)/C=C\c2ccccc2)c(OC)c1    0.40
C=CCc1ccc(OCC(=O)NNC(=O)c2ccccc2O)c(OC)c1    0.22
C=CCc1ccc(OC(=O)c2ccc(O)cc2)c(OC)c1 [Compound 13b]    5.72
C=CCc1ccc(OCC(=O)NNC(=O)c2ccccc2S)c(OC)c1    0.59
C=CCc1ccc(OC(=O)c2ccccc2S)c(OC)c1 [Compound 13d]    1.49

Could you now look at the following compound, please?
Exam item: Query Selectivity index on hMAO-A (Homo sapiens) for C=CCc1ccc(OC(=O)/C=C\c2ccc(O)c(OC)c2)c(OC)c1
Marked response: 0.14

---

READOUT_NAME: melting point

As a guide, the following entries are already answered.
C=CCc1ccc(OC(=O)c2ccccc2S)c(OC)c1 [Compound 13d]    182 to 184 °C
C=CCc1ccc(OC(=O)c2ccc(O)c(OC)c2)c(OC)c1 [Compound 13a]    199 to 200 °C

Could you now look at the following molecule, please?
Exam item: Consider the molecule shown here: C=CCc1ccc(OCC(=O)NNC(=O)c2ccccc2S)c(OC)c1 What is its recorded melting point?
Marked response: 210 to 211 °C
